System: A. baumannii FSAb-056
test_protocol: Antimicrobial Susceptibility Test (CLSI), Test Example 2
Format: cell-based
Set-up: unit not given here
reported_conditions: Table 4; strain produces OXA-23, OXA-51
Each entry below carries its recorded antimicrobial susceptibility, A. baumannii FSAb-056.
Reply with just the number.

// known answers, use as guide
> print(dat)
                               entry.smiles  number
1  C[C@@H](O)[C@H]1C(=O)N2C(C(=O)O)=C(CN(C)CCNC(=O)c3cccc(O)c3F)[C@H](C)[C@H]12      32
2  C[C@@H](O)[C@H]1C(=O)N2C(C(=O)[O-])=C(C[N+]3(CCNC(=O)c4ccc(O)c(O)c4F)CCCC3)[C@H](C)[C@H]12      16

Qu. For `C[C@@H](O)[C@H]1C(=O)N2C(C(=O)O)=C(CN3CC(NC(=O)c4ccc(O)c(O)c4Cl)C3)[C@H](C)[C@H]12` , what is its reported antimicrobial susceptibility, A. baumannii FSAb-056?
Ans. 4

Cited source: patent US10933051B2
